Each record here notes measured TGI.
- System: RXF 393 renal
- ASSAY_INFO: NCI tumour cell line growth inhibition, 48 h
ASSAY_READOUT: TGI

>>> val("COc1ccc(N2C(=O)C3c4[nH]c5c(C)cccc5c4C4CCC(C(C)(C)C)CC4C3C2=O)cc1 (configuration not stated)")
"> 10 µM"
>>> val("C/C(=N\\Nc1nc2ccccc2s1)c1ncccn1")
"4.68 µM"
>>> val("O=C(NNC1=NCCN1)c1ccco1")
"> 100 µM"
>>> val("Cn1c2c(cc(S(=O)(=O)c3ccccc3)c1=O)CCc1c-2cnn1-c1ccc(Cl)cc1")
"3.71 µM"
>>> val("CC12Nc3ccccc3N1C(=O)c1ccccc12 (configuration not stated)")
"> 100 µM"
>>> val("COC(=O)Cn1c2c(c3c(O)cccc31)C(=O)c1ccccc1-2")
"> 100 µM"
>>> val("[N-]=[N+]=Nc1c(-c2ccccc2)c(Cl)nc2ccccc12")
"> 100 µM"
>>> val("O=C1C(=O)N(c2ccc(Cl)c(Cl)c2)C(=O)C(=O)C1c1nc2ccccc2s1")
"> 100 µM"
>>> val("O=[N+]([O-])/C=C1\\COCc2cc3c(cc21)OCO3")
"38.9 µM"
>>> val("CCOC(=O)C1=C(O)C(=O)c2ccsc2C1=O")
"> 100 µM"
>>> val("NC(=O)NN=C(CS)CS")
"> 74.4 µM"
>>> val("Cc1ccc(NC(=O)/C=C/c2ccccc2)c(C(N)=O)c1")
"8.16 µM"
>>> val("O=c1ccc2cc(O)c(O)cc2o1")
"> 100 µM"
>>> val("COc1ccc(-c2c3c(nc4nc(SCCc5ccccc5)nc(N)c24)CCCC3)cc1OC")
"> 100 µM"
>>> val("O=c1oc2ccccc2c(Nc2ccc3c(c2)S(=O)(=O)c2ccccc2O3)c1[N+](=O)[O-]")
"51.2 µM"
>>> val("O=C(N/N=C/c1ccc2c(c1)CCC2)c1ccccc1O")
"62 µM"
>>> val("CC12CCC(C(=O)OC1=O)C(C)(C)O2 (configuration not stated)")
"> 100 µM"

====

Measured TGI values are reported for all entries that follow.
- Tested on: MCF7 breast
- ASSAY_INFO: NCI tumour cell line growth inhibition, 48 h
ASSAY_READOUT: TGI

>>> val("CCOC(=O)/C(Cl)=C(\\C)Nc1nc2c(ccc3ccccc32)s1")
"> 100 µM"
>>> val("c1ccc2c(c1)c(NCCCCN1CCCCC1)cc1c3ccccc3c(NCCCCN3CCCCC3)cc21")
"23.2 µM"
>>> val("C#CCOCC12C=CC(O1)C1C(=O)N(C)C(=O)C12 (stereo not given)")
"> 100 µM"
>>> val("COCn1c2ccc(OC(C)=O)cc2c2c(=O)oc(N(C)C)nc21")
"> 100 µM"
>>> val("COc1c2c(cc3oc(C)cc(=O)c13)OC(=N)C(C(N)=O)C2CC(=O)c1ccc(N)cc1 (stereo not given)")
"> 100 µM"

====

- Tested on: HCC-2998 colon
- ASSAY_INFO: NCI tumour cell line growth inhibition, 48 h
ASSAY_READOUT: log10(TGI) (log10 of the value in µM)

>>> val("Cc1ccc(NC(=O)/C=C/c2ccccc2)c(C(N)=O)c1")
1.63
>>> val("Cc1cc(=O)[nH]c(NN2C(Cl)C(=O)C2c2ccc(Cl)cc2)n1 (centres undefined)")
1.51
>>> val("CC1=C(CCC(C)N(C)Cc2ccc(OCCCN3CCCC3)cc2)C(C)(C)CCC1 (centres undefined)")
0.60
>>> val("C=C1CC2OC2(C(=O)O[C@H]2CCC3[C@@H]4CCC5=CC(=O)CC[C@]5(C)C4CC[C@@]32C)C1=O (some centres undefined)")
1.87
>>> val("CC(CN1CCN(CCOCCO)CC1)CN1c2ccccc2Sc2ccc(Cl)cc21 (centres undefined)")
0.55
>>> val("c1ccc2c(c1)c(NCCCCN1CCCCC1)cc1c3ccccc3c(NCCCCN3CCCCC3)cc21")
1.62
>>> val("CCN1CCC(CCOC)(CN2c3ccccc3Sc3ccc(Cl)cc32)C1 (centres undefined)")
0.51
